Origin of measurements: PubChem BioAssay (NCI)

Tested on: SK-MEL-2 melanoma
Assay: NCI tumour cell line growth inhibition, 48 h
Answer each item with its documented TGI.

Q. For `Oc1c(I)cc(I)c2cccnc12` , write its TGI.
A. 52.4 µM

Q. For `c1ccc(CCc2cccnc2)nc1` , write its TGI.
A. > 100 µM

Q. For `Cc1cc(C)nc(SC2=C(Nc3cc(Cl)ccc3O)C(=O)N(Cc3ccccc3)C2=O)n1` , write its TGI.
A. > 160 µM

Q. For COC(=O)C(CCSC)NC(=O)CNC(=O)CSc1nnc(COc2ccc(Cl)cc2)n1-c1ccccc1 (centres undefined) , write its TGI.
A. 28.7 µM

Q. For COc1cc(C(C)O)c[n+](Cc2ccccc2)c1 (centres undefined) , write its TGI.
A. > 100 µM

Q. For CCc1c(C)c(C#N)c(=S)n(C2OC(COC(C)=O)C(OC(C)=O)C(OC(C)=O)C2OC(C)=O)c1-c1ccccc1 (centres undefined) , write its TGI.
A. > 31.6 µM

Q. For `O=C(O)/C=C/c1nc2ccccc2c(=O)o1` , write its TGI.
A. > 100 µM

Q. For `C[C@]12C[C@@H](OC(=O)[C@]1(C)O)[C@@H]([C@]1(O)CC[C@H]3[C@@H]4C[C@H]5O[C@]56C[C@H]5O[C@H]5C(=O)[C@]6(C)[C@H]4CC[C@@]31C)C2` , write its TGI.
A. > 50 µM

Q. For `CC1=NN(c2nc(N)nc(/C(C#N)=C\c3csc([N+](=O)[O-])c3)n2)C(C)(C)C1` , write its TGI.
A. 81 µM

* * *

Test system: MDA-MB-231 breast
Test: NCI tumour cell line growth inhibition, 48 h; in the data active = GI50 below about 0.43 µM; inactive = the rest
Where a SMILES comes first, the peptide text is derived from it. The star is where a group is joined. Palmitoyl = CCCCCCCCCCCCCCCC(=O)*
Hi! Could you answer with just one of these? active, inactive

Q. Write down the call the test reported for this compound. Item: `CCc1cccc(C)c1NC(=O)c1sc2nc3c(cc2c1N)C(=O)CCC3`
A. inactive

Q. Write down the call the test reported for this compound. Item: `NS(=O)(=O)c1ccc(-c2cc3ccncc3cc2OCc2ccccc2)cc1`
A. inactive

Q. Write down the call the test reported for this compound. Item: COc1ncnc(NS(=O)(=O)c2ccc(N=C3C(=O)N(CN4CCN(c5c(F)cc6c(=O)c(C(=O)O)cn(C7CC7)c6c5OC)CC4C)c4ccc(Br)cc43)cc2)c1OC (stereo not drawn)
A. inactive

Q. Write down the call the test reported for this compound. Item: `O=C(Nc1cccc(-n2cc(-c3ccncc3)c(-c3cc(O)cc(Cl)c3)n2)c1)c1cc(C(F)(F)F)cc(C(F)(F)F)c1`
A. inactive

Q. Write down the call the test reported for this compound. Item: `Cc1ccc(-c2nc([P+](c3ccccc3)(c3ccccc3)c3ccccc3)c(S(=O)(=O)c3ccc(C)cc3)o2)cc1`
A. inactive

Q. Write down the call the test reported for this compound. Item: CCCCCCCCCCCCCCCC(=O)N1CCCC1C(=O)NCC(=O)NC(Cc1ccccc1)C(=O)NC(C)C(=O)NC(CO)C(=O)NC(Cc1ccc(O)cc1)C(=O)NC(CCCCN)C(=O)NC(CC(C)C)C(=O)NC(CCCN=C(N)N)C(=O)N1CCCC1C(=O)NCC(N)=O (stereo not drawn) (Palmitoyl-PGFASYKLRPG-NH2; configuration not given here)
A. inactive

Q. Write down the call the test reported for this compound. Item: `COC(=O)CCCCC(=O)c1c(C)[nH]c(/C=C2\N=C(c3ccc[nH]3)C=C2OC)c1C`
A. active

Q. Write down the call the test reported for this compound. Item: `COc1cc2c(cc1OC)-c1ncc3c(OC)c(OC)c(OC)cc3c1C2`
A. active

* * *

System: HOP-18 NSCLC
Experiment: NCI tumour cell line growth inhibition, 48 h
MEASURED PROPERTY: TGI

Q. For C/C=C/C#CC#C/C=C/C=C/C(O)CCO (stereo unspecified) , write its TGI.
A. > 23.1 µM

Q. For CC(N)Cc1ccc(Cl)c(Cl)c1 (stereo unspecified) , write its TGI.
A. > 77.1 µM

Q. For C=C1CCC2[C@@H](CCC3[C@]2(C)CCC[C@]3(C)C(=O)OC)C1CC=O (stereo partly specified) , write its TGI.
A. 29 µM

Q. For CC(C)=CC(=O)N(C)C1C2CN3CCC(O2)C13 (stereo unspecified) , write its TGI.
A. > 100 µM

Q. For `[O-]c1c2cc(-[n+]3c(-c4ccccc4)cc(-c4ccccc4)cc3-c3ccccc3)cc1COCCOCCOCCOCCOC2` , write its TGI.
A. > 100 µM

Q. For `Cc1ccc(S(=O)(=O)N/N=C(/CC(=O)c2c(C)n([O-])c3ccccc3[n+]2=O)C(=O)Nc2ccccc2C)cc1` , write its TGI.
A. > 100 µM

Q. For `O=C(O)/C=C/c1nc2ccccc2c(=O)o1` , write its TGI.
A. > 100 µM

Q. For `Nc1c([N+](=O)[O-])nc(Cl)c2nncn12` , write its TGI.
A. > 100 µM

Q. For COCCNC(=O)C1C(=O)C(=O)N(CCOC)C1=O (stereo unspecified) , write its TGI.
A. > 100 µM

Q. For `Cn1c(-c2ccccc2)cc(-c2cccs2)c1-c1cccs1` , write its TGI.
A. > 100 µM

Q. For `O=C(CCC1C(=O)NC(=S)NC1=O)c1ccc2ccccc2c1` , write its TGI.
A. > 100 µM

* * *

Test system: MCF7 breast
Test: NCI tumour cell line growth inhibition, 48 h
MEASURED PROPERTY: TGI

Q. For N#CC1=C(/N=C/c2ccccc2)Oc2c(ccc3ccccc23)C1c1ccccc1 (stereo unspecified) , write its TGI.
A. > 100 µM

Q. For CC(C)=CCN1CC(C)C(=O)Nc2ccccc21 (stereo unspecified) , write its TGI.
A. > 100 µM

Q. For `Cc1nc2ccc(C(F)(F)F)cc2nc1NCc1ccc(Cl)c(Cl)c1` , write its TGI.
A. 22.6 µM

Q. For `Cc1cc[n+]2c(c1)-c1cc(C)cc[n+]1CC2` , write its TGI.
A. > 100 µM

Q. For `CC(C)(O)CNc1nc(Nc2ccnc(C(F)(F)F)c2)nc(-c2cccc(C(F)(F)F)n2)n1` , write its TGI.
A. 42.5 µM

Q. For `COc1cc2nc(-c3cc(F)ccc3O)nc(N[C@@H]3CNC[C@H]3C(C)(C)O)c2cc1OC` , write its TGI.
A. 3.07 µM

Q. For `Cc1c(-c2ccccc2)[nH]c2cc(Cl)ccc2c1=O` , write its TGI.
A. > 100 µM

Q. For `NS(=O)(=O)c1ccc(-c2cc3ccncc3cc2OCc2ccccc2)cc1` , write its TGI.
A. > 25 µM

Q. For `COc1ccc(/C(Br)=C2\OC(=O)c3ccccc32)cc1` , write its TGI.
A. > 10 µM

Q. For `Cn1c(-c2ccccc2)cc(-c2cccs2)c1-c1cccs1` , write its TGI.
A. > 100 µM

Q. For `COc1cc(O)c2c(=O)c(O)c(-c3ccc(O)c(OC)c3)oc2c1` , write its TGI.
A. > 100 µM

* * *

Tested on: RPMI-8226 leukemia
Assay: NCI tumour cell line growth inhibition, 48 h
Answer each item with its documented TGI.
Dear colleague, please return just the value in µM, with no unit written.

Q. Tell me its TGI on RPMI-8226 leukemia: `CCN(CC)CCCCCCNc1cc(OC)cc2cccnc12`
A. 5.45

Q. Tell me its TGI on RPMI-8226 leukemia: `c1ccc2cc(-c3n(Cc4ccc5ccccc5n4)c4ccccc4[n+]3Cc3ccc4ccccc4n3)ccc2c1`
A. 0.52

Q. Tell me its TGI on RPMI-8226 leukemia: CN1C(c2ccccc2)CC(=O)C(N)C1c1ccccc1 (centres undefined)
A. 44.1

Q. Tell me its TGI on RPMI-8226 leukemia: `O=[N+]([O-])c1ccc(C(=S)Nc2ccccc2)o1`
A. 4.9

Q. Tell me its TGI on RPMI-8226 leukemia: O=C1c2sccc2-c2cccc3cccc1c23 (tested in a mixture with another compound)
A. 0.668

Q. Tell me its TGI on RPMI-8226 leukemia: `Cc1cc(N(CCC#N)CCC#N)ccc1/C(N=Nc1cccc(Cl)c1)=N/NC(=O)c1cc(Cl)ccc1O`
A. 63.5

Q. Tell me its TGI on RPMI-8226 leukemia: Cc1ccc(NC(=O)CC2C(=O)Nc3ccccc3S2(=O)=O)c(C)c1 (centres undefined)
A. 43.4

Q. Tell me its TGI on RPMI-8226 leukemia: CC1(c2ccccc2Cl)C(C#N)C(=O)NC(=O)C1C#N (centres undefined)
A. 59.6

* * *

Test system: CAKI-1 renal
Test: NCI tumour cell line growth inhibition, 48 h
MEASURED PROPERTY: GI50

Q. For `CCCCCCNC(=O)Oc1ccc(/C(=C(\C)c2ccc(Cl)cc2)c2ccc(OCCN3CCCCC3)cc2)cc1` , write its GI50.
A. 4.03 µM

Q. For `COc1cc2c(cc1OCCCCN1CCN(C(=S)SCCC(C#N)(c3ccccc3)c3ccccc3)CC1)N=C[C@@H]1CCCN1C2=O` , write its GI50.
A. 0.597 µM

Q. For `Cc1ccc(-c2nc([P+](c3ccccc3)(c3ccccc3)c3ccccc3)c(S(=O)(=O)c3ccc(C)cc3)o2)cc1` , write its GI50.
A. 1.36 µM

Q. For COC1=C(OC)C(=O)C(SC/C=C(\C)CCCC(C)CCCC(C)CCCC(C)C)=CC1=O (configuration not stated) , write its GI50.
A. 6.64 µM

Q. For `CCc1cccc(C)c1NC(=O)c1sc2nc3c(cc2c1N)C(=O)CCC3` , write its GI50.
A. 0.537 µM

Q. For `COC(=O)[C@H]1CCCN1C(=O)[C@H]1CCCN1C(=O)[C@@H](Cc1c[nH]c2ccccc12)NC(=S)Nc1cc(C(F)(F)F)cc(C(F)(F)F)c1` , write its GI50.
A. 2.1 µM

Q. For CCCCCO/N=C\c1c2c(O)c3c(O)c(C)c4c(c3c1O)C(=O)C(C)(O/C=C\C(OC)C(C)C(OC(C)=O)C(C)C(O)C(C)C(O)C(C)/C=C\C=C(\C)C(=O)N2)O4 (configuration not stated) , write its GI50.
A. 1.91 µM
